Test: qHTS Screen of the MIPE 4.0 Collection Against Ewings Sarcoma (TC71) (AID 1259253); also: nearly all actives have a fitted effect of over 40% in size
Settings: TC71 Ewing sarcoma viability, CellTiter-Glo, 48 h; series mostly up to 45.8 µM
Method: There is a large unmet medical need for treatments for Ewing sarcoma, a pediatric sarcoma. […] Using the NCATS developed oncology compound library called the Mechanism of Interrogation Plate (MIPE), four Ewing sarcoma cell lines were evaluated (TC32, TC71, RDES, EW8). Compounds, in a 12-point titration series, were incubated with cells for 48 hours and the read out was cell viability (CellTiter-Glo from Promega). […]
Records with an inconclusive call do not appear. Calls of active or inactive are those of the source. Calls follow the shape of the dose curve; as a rule, active = well fitted inhibition curve with a large enough effect; inconclusive = small, poorly fitted or top-dose-only effect; inactive = no such curve, though single readings can be large or run the other way.
Classes to choose from: T for active, F for inactive

Answered cases to consult:
compound="C[Se]CCC(N)C(=O)O (configuration not stated)" discrete_label=F
compound=CCCCCCCCCCCCCCCCCCCCCCO discrete_label=F
compound=C=C(c1ccc(C(=O)O)cc1)c1cc2c(cc1C)C(C)(C)CCC2(C)C discrete_label=F
compound="O=C(OC1C[C@H]2CC[C@@H](C1)[N+]21CCCC1)C(O)(c1ccccc1)c1ccccc1 (some centres not stated)" discrete_label=F
compound="CCOC(=O)C(C)Oc1cccc2c(=O)n(CC(=O)Nc3ccc4c(c3)OCCO4)ccc12 (configuration not stated)" discrete_label=F
compound="C[C@@H](N)C1CCC(C(=O)Nc2ccncc2)CC1 (some centres not stated)" discrete_label=F
compound="CC1=C(C)C(=O)C(C(CCCCCC(=O)O)c2ccccc2)=C(C)C1=O (configuration not stated)" discrete_label=F
compound="CCC(C)(Oc1ccc(C2(c3ccc(OC(C)(CC)C(=O)O)cc3)CCCCC2)cc1)C(=O)O (configuration not stated)" discrete_label=F

Could you check what this test reported for `NNc1nncc2ccccc12` ?
F

Hi team, can someone confirm the assay call for `Nc1nc(OCc2ccccc2)c2[nH]cnc2n1` ?
T

What outcome does the record of this test show for `O=c1c(O)c(-c2ccc(O)cc2O)oc2cc(O)cc(O)c12` ?
F

For Cc1nccn1CC1CCc2c(c3ccccc3n2C)C1=O (configuration not stated) , which call appears in the assay record?
T

Where do these numbers come from? They come from PubChem BioAssay (NCATS).
